- Assay remarks: Primary fluorescence-based thiol-reactive (MSTI) qHTS assay for identification of artifact compounds. (AID 1845221); note: nearly all actives have a fitted effect of over 65% in size
- Setup conditions: MSTI thiol-reactivity probe, 1 h; series mostly up to 53.8 µM
Inconclusive results are not listed. Activity calls are given as the source filed them. Calls come from the whole dose curve; as a rule, active = well fitted inhibition curve with a large enough effect; inconclusive = small, poorly fitted or top-dose-only effect; inactive = no such curve, though single readings can be large or run the other way. *1 amine or outer side, *2 acyl side, *3 side chain or, on linkers, in order; H or OH if unused. Where a SMILES comes first, the peptide text is derived from it. [ ]: non-standard residue; d: D form. X7 = O=C([C@@H](CC(O)CCl)O[*:1])[*:2]; aIle = CC[C@@H](C)[C@H](N)C(=O)O; NMeV = CN[C@H](C(=O)O)C(C)C; NMeA = CN[C@@H](C)C(=O)O; βAla = NCCC(=O)O
Outcome field: choose from active, inactive

For orientation, consider the following solved cases.
# Compound, Label value
data = [
    ("C[C@@H]1O[C@@H](O[C@H]2CC[C@@]3(C)C(CC[C@@H]4C3CC[C@]3(C)[C@@H](C5=CC(=O)OC5)CC[C@]43O)C2)[C@H](O[C@@H]2O[C@H](CO)[C@@H](O)[C@H](O)[C@H]2O)[C@H](O)[C@H]1O (some centres not stated)", "inactive"),
    ("CC[C@@H](C)[C@@H]1NC(=O)[C@@H]2CCCN2C(=O)[C@@H](CC(O)CCl)OC(=O)CCNC(=O)[C@H](C)N(C)C(=O)[C@H](C(C)C)N(C)C1=O (some centres not stated) (cyclo([NMeA][βAla][X7]P[aIle][NMeV]))", "inactive"),
    ("CCC(C)C1NC(=O)C(C(C)=O)=C1O (configuration not stated)", "inactive"),
    ("O=C1Nc2ccc3ncsc3c2/C1=C/c1cnc[nH]1", "inactive"),
    ("C=CC(C)(C)C12C=C(O)C(=O)N3/C(=C\\c4cnc[nH]4)C(=O)NC31N(OC)c1ccccc12 (configuration not stated)", "active"),
]

Input line: Record request — test call for C[C@@H]1O[C@@H](O[C@H]2CC[C@@]3(C)C(CC[C@@H]4C3CC[C@]3(C)[C@@H](C5=CC(=O)OC5)CC[C@]43O)C2)[C@H](O)[C@H](O)[C@H]1O (some centres not stated)
Output line: inactive

Input line: Record request — test call for CO[C@H]1[C@H](O)[C@H](O[C@H]2CC[C@]3(C=O)C4CC[C@]5(C)[C@H](C6=CC(=O)OC6)CC[C@]5(O)C4CC[C@@H]3C2)O[C@@H](C)[C@@H]1O (some centres not stated)
Output line: inactive

Input line: Record request — test call for CCc1nn(C)c(C(=O)NCc2ccc(Oc3ccc(C)cc3)cc2)c1Cl
Output line: inactive

Input line: Record request — test call for CC(C)[C@H]1OC(=O)[C@H](Cc2ccccc2)N(C)C(=O)[C@@H](C(C)C)OC(=O)[C@H](Cc2ccccc2)N(C)C(=O)[C@@H](C(C)C)OC(=O)[C@H](Cc2ccccc2)N(C)C1=O
Output line: inactive

Input line: Record request — test call for CC1=CC(=O)[C@@H](O)[C@]2(C)C3[C@@H](O)[C@@H]4OC(=O)[C@@H]([C@H]4C)[C@]3(C)C(=O)[C@H](O)[C@@H]12 (some centres not stated)
Output line: inactive

Measured values drawn from PubChem BioAssay (NCATS) for this set.
